- System Tested: MAGI1_2, Q96QZ7
- Sequence (Q96QZ7 456-580): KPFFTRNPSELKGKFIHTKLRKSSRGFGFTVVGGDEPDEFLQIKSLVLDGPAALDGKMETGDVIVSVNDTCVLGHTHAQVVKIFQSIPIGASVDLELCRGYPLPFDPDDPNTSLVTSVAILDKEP
- Procedure Details: holdup assay
- Design: key: below the threshold = too weak to quantify, mostly under pKd 3.1 to 4
- Assay Context: plain residues with an end cap or a label only (N-terminal biotin on a linker: ado-ado)
The binders listed here are annotated with their pKd.
Output: the number by itself.

>  <Binder>
ATKDKKITTV [EXOC4, Q96A65]

>  <Readout Number>
4.91

$$$$
>  <Binder>
TNSKQGETTV [FZD1, Q9UP38]

>  <Readout Number>
3.82

$$$$

Entry KKTPVSRSHL [SLC22A3, O75751] ; pKd = 3.62
